Target: C-C chemokine receptor type 5 (Homo sapiens)
Sequence (P51681 whole entry): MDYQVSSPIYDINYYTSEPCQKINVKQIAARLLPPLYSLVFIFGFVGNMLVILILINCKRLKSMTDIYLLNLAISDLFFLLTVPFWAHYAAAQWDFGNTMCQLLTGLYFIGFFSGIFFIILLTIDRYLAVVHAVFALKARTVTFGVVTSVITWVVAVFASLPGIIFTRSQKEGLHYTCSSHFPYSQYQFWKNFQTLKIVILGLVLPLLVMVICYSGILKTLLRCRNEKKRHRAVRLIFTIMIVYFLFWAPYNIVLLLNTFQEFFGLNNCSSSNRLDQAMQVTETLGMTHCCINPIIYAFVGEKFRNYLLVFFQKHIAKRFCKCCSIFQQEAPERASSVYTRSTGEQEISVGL
Experiment: Displacement of [125I]MIP1alpha from human CCR5 receptor expressed in HEK293 cells co-expressing CD4
pIC50: −log10 of the molar value.
Output True for pIC50 not less than 7; output False otherwise.

[[record]]
mol = "CCOC(=O)C1CCN(Cc2cc(Br)ccc2OCc2ccc(Cl)cc2)CC1"
discrete_label = "False"

[[record]]
mol = "OC1CCN(Cc2cc(Br)ccc2OCc2ccc(Cl)cc2)CC1"
discrete_label = "True"

[[record]]
mol = "Cc1cc(Br)cc(C)c1NC(=O)NCC1(O)CCN(Cc2cc(Br)ccc2OCc2ccc(Cl)cc2)CC1"
discrete_label = "False"


Would you kindly look at the next entry?
Ask: Confirm if pIC50 reported for the compound `CCNCc1cc(Br)ccc1OCc1ccc(Cl)cc1` is 7 or above.
Reply: False
